Assay: Cmax in Sprague-Dawley rat serum at 10 mg/kg, po administered as single dose by LC-MS/MS analysis
Format: ADME, organism-based
Set-up: dose 10 mg/kg, route oral
MEASURE NAME: Cmax (ng/mL)
// note: answer is a bare numeric in ng/mL

Task item: Query: Cmax; subject: c1ccc(N2CCN(CCCN3CCN(c4ccccn4)CC3)CC2)nc1
Reply: 329

###

Assay: Half life in Sprague-Dawley rat prostate at 10 mg/kg, po administered as single dose by LC-MS/MS analysis
Format: ADME, organism-based, Prostate gland
MEASURE NAME: half-life (h)
Numeric answer only, unit h assumed.

Task item: // half-life lookup, key: c1ccc(N2CCN(CCCN3CCN(c4ccccn4)CC3)CC2)nc1
Reply: 155
